Biological target: panel of 255 wild-type kinases (Homo sapiens, UniProt Q04912)
Sequence (Q04912 25-1400): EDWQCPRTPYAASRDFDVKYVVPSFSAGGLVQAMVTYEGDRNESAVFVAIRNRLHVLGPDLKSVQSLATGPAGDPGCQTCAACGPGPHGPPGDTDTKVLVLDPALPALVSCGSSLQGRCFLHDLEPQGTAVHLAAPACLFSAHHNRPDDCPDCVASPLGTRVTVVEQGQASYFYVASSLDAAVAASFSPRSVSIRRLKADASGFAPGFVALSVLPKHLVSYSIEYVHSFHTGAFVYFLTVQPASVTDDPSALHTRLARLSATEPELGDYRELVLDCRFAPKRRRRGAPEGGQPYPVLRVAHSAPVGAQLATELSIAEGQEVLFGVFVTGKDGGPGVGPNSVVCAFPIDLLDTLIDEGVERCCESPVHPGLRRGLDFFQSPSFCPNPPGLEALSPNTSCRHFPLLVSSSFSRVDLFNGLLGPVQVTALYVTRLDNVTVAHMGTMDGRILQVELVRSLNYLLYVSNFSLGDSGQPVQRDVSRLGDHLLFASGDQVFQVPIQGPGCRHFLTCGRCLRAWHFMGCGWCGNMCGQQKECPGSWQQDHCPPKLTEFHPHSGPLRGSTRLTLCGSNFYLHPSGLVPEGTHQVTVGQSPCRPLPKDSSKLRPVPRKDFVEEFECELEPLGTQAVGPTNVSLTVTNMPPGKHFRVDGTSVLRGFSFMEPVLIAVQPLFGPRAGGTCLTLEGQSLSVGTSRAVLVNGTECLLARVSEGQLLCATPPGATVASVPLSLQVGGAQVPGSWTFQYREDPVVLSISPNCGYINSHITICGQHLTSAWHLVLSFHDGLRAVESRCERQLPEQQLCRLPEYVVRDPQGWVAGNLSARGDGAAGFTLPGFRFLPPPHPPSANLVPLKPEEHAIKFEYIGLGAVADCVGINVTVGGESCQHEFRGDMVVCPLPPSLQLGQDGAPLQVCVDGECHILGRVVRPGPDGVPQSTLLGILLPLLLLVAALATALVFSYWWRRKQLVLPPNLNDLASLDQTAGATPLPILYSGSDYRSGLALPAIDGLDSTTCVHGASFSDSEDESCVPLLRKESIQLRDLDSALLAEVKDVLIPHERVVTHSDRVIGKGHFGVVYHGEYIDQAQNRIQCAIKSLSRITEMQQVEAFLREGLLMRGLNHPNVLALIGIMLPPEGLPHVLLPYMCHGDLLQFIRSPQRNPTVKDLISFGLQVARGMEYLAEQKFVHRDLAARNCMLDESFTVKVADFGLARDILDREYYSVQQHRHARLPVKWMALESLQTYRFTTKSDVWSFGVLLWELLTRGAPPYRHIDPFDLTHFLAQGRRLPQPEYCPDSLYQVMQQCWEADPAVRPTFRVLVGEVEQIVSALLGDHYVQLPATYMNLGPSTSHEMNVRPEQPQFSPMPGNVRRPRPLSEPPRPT
Assay: Kinase panel profiling at 1 µmol/L (MSA or IMAP), percentage inhibition
Assay type: biochemical
Conditions: kinase RON; 1 µmol/L single concentration; read-out: %-inhibition at 1 µmol/L, RON
Examples of compounds with documented inhibition at 1 µM follow.
Please reply with the bare figure in % and do not write the unit itself.

**Q:** Specify inhibition at 1 µM for `Cn1cc(-c2cc3c(N4CCN(c5ncc([C@@](C)(N)c6ccc(F)cc6)cn5)CC4)ncnn3c2)cn1` , system panel of 255 wild-type kinases (Homo sapiens, UniProt Q04912).
**A:** 48

**Q:** Lab note: panel of 255 wild-type kinases (Homo sapiens, UniProt Q04912) assay, enter inhibition at 1 µM for `COc1cc2ncnc(Nc3ccc(F)c(Cl)c3)c2cc1NC(=O)/C=C/CN1CCCCC1` here
**A:** 5

**Q:** Answer with inhibition at 1 µM of `COc1ccc(CN2C3CC2CN(c2ccc(-c4cc(OCC(C)(C)O)cn5ncc(C#N)c45)cn2)C3)cn1` measured for panel of 255 wild-type kinases (Homo sapiens, UniProt Q04912).
**A:** 49

**Q:** State the measured inhibition at 1 µM (panel of 255 wild-type kinases (Homo sapiens, UniProt Q04912)) of `Cc1nc(NC(=O)N2CCC[C@H]2C(N)=O)sc1-c1ccnc(C(C)(C)C(F)(F)F)c1`
**A:** 7
